Data credit: patent US8957062B2

Molecular target: human GPR119 (Homo sapiens)
Sequence (Q8TDV5 1-308 limits assumed): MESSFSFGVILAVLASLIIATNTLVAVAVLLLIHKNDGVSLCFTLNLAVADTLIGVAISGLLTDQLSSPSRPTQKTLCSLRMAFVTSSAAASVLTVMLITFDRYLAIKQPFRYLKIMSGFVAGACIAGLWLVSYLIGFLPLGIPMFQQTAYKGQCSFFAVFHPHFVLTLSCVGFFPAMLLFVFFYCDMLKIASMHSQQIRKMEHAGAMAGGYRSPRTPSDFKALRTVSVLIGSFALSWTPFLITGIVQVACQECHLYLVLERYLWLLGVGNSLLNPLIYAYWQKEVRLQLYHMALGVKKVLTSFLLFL
Test: Measurement of GPR119 signaling (cAMP assay) in cells stably transfected with human GPR119
Type: cell-based
Conditions: table column; cAMP stimulation, human GPR119; read-out: GPR119 Human EC50
The label is Yes for EC50 below 5 nM and No for EC50 equal to or exceeding 5 nM.

Report whether reported EC50 is lower than 5 nM (strictly) for `CC(C)c1noc(N2CCC([C@H]3C[C@H]3CCOc3ccc(S(C)(=O)=O)cc3F)CC2)n1`
Yes

Query `CCN(CC)C(=O)Cc1ccc(OCC[C@@H]2C[C@@H]2C2CCN(c3nc(C(C)C)no3)CC2)cc1F` next
Yes

Same question for `O=C(CC1CCC1)N1CCC([C@H]2C[C@H]2CCOc2ccc(-n3cnnn3)cc2)CC1` please.
No

Now the same for `CC(C)c1noc(N2CCC([C@H]3C[C@H]3CCOc3ccc(CC(=O)N4CC[C@@H](F)C4)cc3)CC2)n1`
No

Ok, now `CC(C)c1noc(N2CCC([C@H]3C[C@H]3CCOc3ccc(CC(=O)N4CCOCC4)cc3)CC2)n1`
No

Would you mind doing `CC(C)c1noc(N2CCC([C@H]3C[C@H]3CCOc3cc(F)c(C(=O)NC(C)(C)CO)c(F)c3)CC2)n1` as well?
No

Also need COC(C)c1noc(N2CCC([C@H]3C[C@H]3CCOc3ncc(-n4cnnn4)cc3C)CC2)n1 (stereo partly shown) , thanks.
Yes
